Study System: purified human plasma kallikrein (Homo sapiens (Human), UniProt P03952)
Sequence (P03952 391-638): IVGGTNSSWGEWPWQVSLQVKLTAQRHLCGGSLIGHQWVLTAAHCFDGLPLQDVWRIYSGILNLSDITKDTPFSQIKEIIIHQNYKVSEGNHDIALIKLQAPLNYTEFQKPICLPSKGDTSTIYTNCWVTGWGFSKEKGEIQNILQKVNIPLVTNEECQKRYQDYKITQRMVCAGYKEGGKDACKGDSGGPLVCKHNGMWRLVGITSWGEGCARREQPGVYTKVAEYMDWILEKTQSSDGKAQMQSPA
Sequence (P03952 20-390 partner): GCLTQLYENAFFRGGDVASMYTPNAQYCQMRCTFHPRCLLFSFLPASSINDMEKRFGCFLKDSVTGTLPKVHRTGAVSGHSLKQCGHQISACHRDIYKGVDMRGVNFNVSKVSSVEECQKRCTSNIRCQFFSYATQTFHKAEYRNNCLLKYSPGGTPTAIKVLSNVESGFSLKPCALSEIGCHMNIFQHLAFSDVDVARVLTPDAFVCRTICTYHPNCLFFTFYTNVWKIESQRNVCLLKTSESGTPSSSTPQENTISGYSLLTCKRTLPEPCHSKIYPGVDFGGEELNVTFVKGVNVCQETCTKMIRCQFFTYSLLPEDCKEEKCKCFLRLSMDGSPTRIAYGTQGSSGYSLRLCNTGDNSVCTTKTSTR
Protocol: Plasma kallikrein enzyme inhibition assay (chromogenic substrate S-2302)
Type: biochemical
Condition Summary: measured at 25° C. (no asterisk)
pKi: −log10 of the molar value. Counter-ions that a name gives are not always drawn.
Parameter Measured: pKi

| Molecule | Value |
| --- | --- |
| O=C1CCC2(CCN(c3cccc4c3CCN(C(=O)c3cnn(-c5cccc(Cl)c5F)c3)C4C(=O)Nc3ccc(C(=O)O)cc3)CC2)O1 (stereo not shown) [Example 75, TFA salt] | 7.59 |
| COC1CCN(c2cccc3c2CCN(C(=O)c2cn(-c4cccc(Cl)c4F)nn2)C3C(=O)Nc2ccc3c(c2)CC(=O)N3)CC1 (stereo not shown) [Example 190, TFA salt] | 6.79 |
| CC1(O)CCN(c2cccc3c2CCN(C(=O)c2cn(-c4cccc(Cl)c4F)nn2)C3C(=O)Nc2ccc(C(=O)O)cc2)CC1 (stereo not shown) [Example 67, TFA salt] | 8.14 |
| CN(C)C1CCN(c2cccc3c2CCN(C(=O)c2cn(-c4cccc(Cl)c4F)cn2)[C@H]3C(=O)Nc2ccc(C(=O)O)cc2)CC1 (single isomer, unassigned) [Example 54, bis-TFA salt] | 7.30 |
| CN(C)C1CCN(c2cccc3c2CCN(C(=O)c2cn(-c4cccc(Cl)c4F)nn2)[C@@H]3C(=O)Nc2ccc(-c3cn[nH]c3)cc2)CC1 [Example 104, bis-TFA salt] | 9.02 |
| COC1CCN(c2cccc3c2CCN(C(=O)c2cn(-c4cccc(Cl)c4F)cn2)[C@@H]3C(=O)Nc2ccc(C(=O)O)cc2)CC1 [Example 273, TFA salt] | 8.12 |
| COCCOc1cccc2c1CCN(C(=O)[C@H]1CC(c3cccc(Cl)c3F)=NO1)[C@H]2C(=O)Nc1ccc(C(=O)O)cc1 | 7.21 |
| CNC(=O)c1ccc(-c2cccc3c2CCN(C(=O)c2cn(-c4cccc(Cl)c4F)nn2)C3C(=O)Nc2ccc(CC(=O)O)cc2)cn1 (stereo not shown) [Example 117, TFA salt] | 7.79 |
| CN(C)C(=O)C1CCN(c2cccc3c2CCN(C(=O)c2cn(-c4cccc(Cl)c4F)nn2)[C@H]3C(=O)Nc2ccc(C(=O)O)cc2)CC1 (single isomer, unassigned) [Example 57, TFA salt] | 6.56 |
| CC(C)c1nnc2n1CCN(C(=O)c1cn(-c3cccc(Cl)c3F)nn1)C2C(=O)Nc1ccc(C(=O)O)cc1 (stereo not shown) | 5.45 |
